Molecular target: SphK1 (Homo sapiens)
Construct: commercial enzyme from BPS Bioscience; human given only for the docking structure 3VZB
Sequence (Q9NYA1 whole entry): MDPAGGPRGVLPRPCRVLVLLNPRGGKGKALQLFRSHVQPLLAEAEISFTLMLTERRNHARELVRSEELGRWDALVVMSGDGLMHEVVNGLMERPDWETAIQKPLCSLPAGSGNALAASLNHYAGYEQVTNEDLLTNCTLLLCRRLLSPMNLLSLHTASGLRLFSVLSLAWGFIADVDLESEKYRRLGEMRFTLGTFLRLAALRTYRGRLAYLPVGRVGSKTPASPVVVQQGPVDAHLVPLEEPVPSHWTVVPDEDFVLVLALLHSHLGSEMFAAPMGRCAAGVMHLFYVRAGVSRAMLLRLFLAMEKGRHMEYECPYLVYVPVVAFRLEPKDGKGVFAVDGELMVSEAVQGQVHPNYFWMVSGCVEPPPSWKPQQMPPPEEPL
Assay: ADP-Glo kinase assay
Format: biochemical
ATTRIBUTE MEASURED: IC50

Field: example entries. Status: answers known.
COMPOUND	TARGET OF ASSAY	IC50
CCCCCCCCCCCCCC[C@@H]1OC[C@H](N)[C@@H]1O [compound 1, pachastrissamine]	SphK1 (Homo sapiens)	12 µM
CCCCCCCCCCCCCCCC[C@@H]1CC[C@H](N)[C@@H]1O [4c]	SphK1 (Homo sapiens)	41.3 µM
CCCCCCCCCCCCCC[C@@H]1CC[C@H](N)[C@@H]1O [4b]	SphK1 (Homo sapiens)	7.5 µM

For CCCCCCCCCCCC[C@@H]1CC[C@H](N)[C@@H]1O [4a] , what is its reported IC50?
58.2 µM
